assay: Oral bioavailability in human; format: ADME, organism-based; conditions: in vivo
readout-type: bioavailability (%)
Express it in %; write the number only.

Request: Query: bioavailability; subject: Nc1ccn(C[C@@H](CO)OCP(=O)(O)O)c(=O)n1.O.O
Response: 2

---

experiment: Solubility in water; format: physicochemical
What solubility was measured for each of the following?

Request: Query: solubility; subject: Nc1ncnc2c1ncn2[C@@H]1O[C@H](COC(=O)[C@H](N)Cc2ccccc2)[C@@H](O)[C@@H]1O
Response: > 10 mg/mL

Request: Can you check CC[C@H](C)[C@H](N)C(=O)OC[C@H]1O[C@@H](n2cnc3c(N)ncnc32)[C@@H](O)[C@@H]1O next?
Response: > 10 mg/mL

Request: Can you check Nc1ncnc2c1ncn2[C@@H]1O[C@H](CO)[C@@H](O)[C@@H]1O next?
Response: 0.47 mg/mL

Request: Can you check CC(C)[C@@H](N)C(=O)OC[C@H]1O[C@@H](n2cnc3c(N)ncnc32)[C@@H](O)[C@@H]1O next?
Response: > 10 mg/mL

Request: Can you check Nc1ncnc2c1ncn2[C@@H]1O[C@H](COC(=O)C[C@@H](N)C(=O)O)[C@@H](O)[C@@H]1O next?
Response: > 10 mg/mL

---

experiment: Cytotoxicity against HFF in presence of deoxy-coformycin; assay type: cell-based; settings: human, HFF cells
readout-type: CC50 (µM)
Express it in µM; write the number only.

Request: Query: CC50; subject: Nc1ncnc2c1ncn2[C@@H]1O[C@H](CO)[C@@H](O)[C@@H]1O [VIDARABINE]
Response: 90

---

assay: Cytotoxicity against HFF; format: cell-based; conditions: human, HFF cells
readout-type: CC50

Request: Query: CC50; subject: Nc1ncnc2c1ncn2[C@@H]1O[C@H](CO)[C@@H](O)[C@@H]1O [VIDARABINE]
Response: > 100 µM

---

What t1/2 was measured for each of the following?
system: Liver; assay: Metabolic stability in rat liver homogenate; type: ADME, tissue-based; conditions: tissue homogenate

Request: Query: t1/2; subject: CC(C)[C@H](N)C(=O)OC[C@H]1O[C@@H](n2cnc3c(N)ncnc32)[C@@H](O)[C@@H]1O
Response: 1.8 min

Request: Can you check CC[C@H](C)[C@@H](N)C(=O)OC[C@H]1O[C@@H](n2cnc3c(N)ncnc32)[C@@H](O)[C@@H]1O next?
Response: 18.6 min

Request: Can you check CC[C@H](C)[C@H](N)C(=O)OC[C@H]1O[C@@H](n2cnc3c(N)ncnc32)[C@@H](O)[C@@H]1O next?
Response: 3.6 min

---

test system: Liver; assay: Metabolic stability in rat liver homogenate; assay type: ADME, tissue-based; details: tissue homogenate
Threshold 4 min: t1/2 strictly smaller gives satisfied, otherwise not satisfied.

Request: Please check: t1/2 for CC(C)C[C@@H](N)C(=O)OC[C@H]1O[C@@H](n2cnc3c(N)ncnc32)[C@@H](O)[C@@H]1O , strictly under 4 min or not?
Response: satisfied

Request: Can you check CC(C)[C@@H](N)C(=O)OC[C@H]1O[C@@H](n2cnc3c(N)ncnc32)[C@@H](O)[C@@H]1O next?
Response: not satisfied

Request: Can you check Nc1ncnc2c1ncn2[C@@H]1O[C@H](COC(=O)[C@H](N)Cc2ccccc2)[C@@H](O)[C@@H]1O next?
Response: not satisfied

Request: Can you check COC(=O)[C@H](NP(=O)(OC[C@H]1O[C@@H](n2cnc3c(N)ncnc32)[C@@H](O)[C@@H]1O)Oc1ccccc1)C(C)C (stereo not given in full) next?
Response: not satisfied

Request: Can you check CC(C)C[C@H](N)C(=O)OC[C@H]1O[C@@H](n2cnc3c(N)ncnc32)[C@@H](O)[C@@H]1O next?
Response: satisfied
